- testTarget: hOAT (Homo sapiens)
propertyMeasured: pKd
Interpret pKd as the negative base-10 log of the concentration measured in mol/L.

Per the record, Cl.N[C@H]1C=C(C(=O)O)CC(F)(F)C1 [Compound 17, hydrochloride] has pKd of 2.54

###

Target sequence: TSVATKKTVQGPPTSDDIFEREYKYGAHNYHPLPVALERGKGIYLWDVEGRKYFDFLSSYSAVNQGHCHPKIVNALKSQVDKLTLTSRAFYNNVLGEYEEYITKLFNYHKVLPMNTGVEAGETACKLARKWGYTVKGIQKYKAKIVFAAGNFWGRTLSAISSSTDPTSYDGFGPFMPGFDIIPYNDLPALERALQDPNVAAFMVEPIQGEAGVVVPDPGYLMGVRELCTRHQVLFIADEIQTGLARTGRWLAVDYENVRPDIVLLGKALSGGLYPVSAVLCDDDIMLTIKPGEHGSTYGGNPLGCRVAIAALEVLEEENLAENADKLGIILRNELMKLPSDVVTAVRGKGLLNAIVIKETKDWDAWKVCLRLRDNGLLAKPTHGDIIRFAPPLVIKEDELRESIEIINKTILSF
propertyMeasured: Ki (µM)
Numeric only. Scale: µM

compound="Cl.N[C@H]1CC(C(=O)O)=CC(F)(F)C1 [Compound 17a, hydrochloride]" valuemeasured=1200

Per the record, Cl.N[C@H]1C=C(C(=O)O)CC(F)(F)C1 [Compound 17, hydrochloride] has Ki of 270

These measurements were taken from patent US20260265176A1.
